Measure name: IC50

Query :: Please tell me: IC50 of CC(C)N1CCN(c2ccc(Nc3ncc(-c4cc5c(s4)C(=O)NC5)n4ccnc34)cc2)CC1 [Compound 228] , system MAPKAPK5 (Homo sapiens, UniProt Q8IW41)?
Result :: 101 to 500 nM

Query :: Please tell me: IC50 of CCN(CCO)c1ccc(Nc2ncc(-c3cccc(N)c3)n3ccnc23)cc1 [Compound 7] , system MAPKAPK5 (Homo sapiens, UniProt Q8IW41)?
Result :: > 1000 nM

Query :: Please tell me: IC50 of CCN(CC)CCNC(=O)c1ccc(Nc2ncc(-c3cn[nH]c3)n3ccnc23)cc1OC [Compound 48] , system MAPKAPK5 (Homo sapiens, UniProt Q8IW41)?
Result :: > 1000 nM

Query :: Please tell me: IC50 of CS(=O)(=O)c1ccc(Nc2ncc(-c3ccc(C(N)=O)cc3)n3ccnc23)cc1 [Compound 97] , system MAPKAPK5 (Homo sapiens, UniProt Q8IW41)?
Result :: > 1000 nM

Query :: Please tell me: IC50 of CC(C)N1CCN(c2ccc(Nc3ncc(-c4ccc5c(c4)CNC5=O)n4ccnc34)cn2)CC1 [Compound 210] , system MAPKAPK5 (Homo sapiens, UniProt Q8IW41)?
Result :: 1 to 100 nM

Query :: Please tell me: IC50 of COc1cccc(Nc2ncc(-c3cn[nH]c3)n3ccnc23)c1 [Compound 16] , system MAPKAPK5 (Homo sapiens, UniProt Q8IW41)?
Result :: > 1000 nM

Query :: Please tell me: IC50 of CCN(CC)CCNC(=O)c1ccc(Nc2ncc(-c3cn[nH]c3)n3ccnc23)cc1 [Compound 32] , system MAPKAPK5 (Homo sapiens, UniProt Q8IW41)?
Result :: 101 to 500 nM

Query :: Please tell me: IC50 of COc1cc(Nc2ncc(-c3csc(C(N)=O)c3)n3ccnc23)ccc1C(=O)NCc1ccc(C)nc1 [Compound 190] , system MAPKAPK5 (Homo sapiens, UniProt Q8IW41)?
Result :: > 1000 nM

Query :: Please tell me: IC50 of NC(=O)c1ccc(-c2cnc(Nc3ccc(C(=O)NCCO)cc3)c3nccn23)cc1 [Compound 49] , system MAPKAPK5 (Homo sapiens, UniProt Q8IW41)?
Result :: > 1000 nM

Query :: Please tell me: IC50 of CN1CCC(NC(=O)c2ccc(Nc3ncc(-c4cn[nH]c4)n4ccnc34)cc2)C1 (stereo not drawn) [Compound 64] , system MAPKAPK5 (Homo sapiens, UniProt Q8IW41)?
Result :: 101 to 500 nM

Query :: Please tell me: IC50 of CN1CCN(c2ccc(Nc3ncc(-c4cc(C(N)=O)co4)n4ccnc34)cc2)CC1 [Compound 151] , system MAPKAPK5 (Homo sapiens, UniProt Q8IW41)?
Result :: 1 to 100 nM

Query :: Please tell me: IC50 of CC(C)N1CCC(c2ccc(Nc3ncc(-c4ccc5c(c4)CNC5=O)n4ccnc34)cc2)CC1 [Compound 206] , system MAPKAPK5 (Homo sapiens, UniProt Q8IW41)?
Result :: 1 to 100 nM

Query :: Please tell me: IC50 of CCNCCNC(=O)c1ccc(Nc2ncc(-c3cn[nH]c3)n3ccnc23)cc1 [Compound 56] , system MAPKAPK5 (Homo sapiens, UniProt Q8IW41)?
Result :: 101 to 500 nM

Query :: Please tell me: IC50 of CCN(CC)CCNC(=O)c1ccc(Nc2ncc(-c3ccc(S(C)(=O)=O)cc3)n3ccnc23)cc1 [Compound 79] , system MAPKAPK5 (Homo sapiens, UniProt Q8IW41)?
Result :: > 1000 nM

Query :: Please tell me: IC50 of c1cn(-c2ccc(Nc3ncc(-c4cn[nH]c4)n4ccnc34)cc2)cn1 [Compound 168] , system MAPKAPK5 (Homo sapiens, UniProt Q8IW41)?
Result :: > 1000 nM

Query :: Please tell me: IC50 of N#Cc1[nH]ncc1-c1cnc(Nc2ccc(N3CCOCC3)cc2)c2nccn12 [Compound 212] , system MAPKAPK5 (Homo sapiens, UniProt Q8IW41)?
Result :: 101 to 500 nM

Query :: Please tell me: IC50 of O=C(NCCc1c[nH]c2ccccc12)c1ccc(Nc2ncc(-c3cn[nH]c3)n3ccnc23)cc1 [Compound 94] , system MAPKAPK5 (Homo sapiens, UniProt Q8IW41)?
Result :: 501 to 1000 nM

Query :: Please tell me: IC50 of CN1CCN(c2ccc(Nc3ncc(-c4cc(F)c(C(N)=O)c(F)c4)n4ccnc34)cc2)CC1 [Compound 140] , system MAPKAPK5 (Homo sapiens, UniProt Q8IW41)?
Result :: 101 to 500 nM

Query :: Please tell me: IC50 of CCN(CC)CCNC(=O)c1ccc(Nc2ncc(-c3ccnn3C)n3ccnc23)cc1 [Compound 88] , system MAPKAPK5 (Homo sapiens, UniProt Q8IW41)?
Result :: > 1000 nM

Query :: Please tell me: IC50 of CCN(CC)c1ccc(Nc2ncc(-c3cn[nH]c3)n3ccnc23)cc1 [Compound 9] , system MAPKAPK5 (Homo sapiens, UniProt Q8IW41)?
Result :: 501 to 1000 nM

Query :: Please tell me: IC50 of Fc1ccc(Nc2ncc(-c3cn[nH]c3)n3ccnc23)cc1Cl [Compound 17] , system MAPKAPK5 (Homo sapiens, UniProt Q8IW41)?
Result :: > 1000 nM

Query :: Please tell me: IC50 of c1cn2c(-c3c[nH]cn3)cnc(Nc3ccc(N4CCOCC4)cc3)c2n1 [Compound 163] , system MAPKAPK5 (Homo sapiens, UniProt Q8IW41)?
Result :: > 1000 nM

Query :: Please tell me: IC50 of CC(C)N1CCN(c2ccc(Nc3ncc(-c4coc(C(N)=O)c4)n4ccnc34)cn2)CC1 [Compound 209] , system MAPKAPK5 (Homo sapiens, UniProt Q8IW41)?
Result :: 101 to 500 nM

Query :: Please tell me: IC50 of NC(=O)Cn1cc(-c2cnc(Nc3ccc(N4CCOCC4)cc3)c3nccn23)cn1 [Compound 24] , system MAPKAPK5 (Homo sapiens, UniProt Q8IW41)?
Result :: > 1000 nM

Query :: Please tell me: IC50 of CCN(CC)CCNC(=O)c1ccc(Nc2ncc(-c3cccs3)n3ccnc23)cc1 [Compound 78] , system MAPKAPK5 (Homo sapiens, UniProt Q8IW41)?
Result :: > 1000 nM

Query :: Please tell me: IC50 of O=C1NCc2cc(-c3cnc(Nc4ccc(N5CCOCC5)cc4)c4nccn34)sc21 [Compound 198] , system MAPKAPK5 (Homo sapiens, UniProt Q8IW41)?
Result :: 101 to 500 nM

Query :: Please tell me: IC50 of CN1CCN(c2ccc(Nc3ncc(-c4ccc(=O)[nH]c4)n4ccnc34)cc2)CC1 [Compound 109] , system MAPKAPK5 (Homo sapiens, UniProt Q8IW41)?
Result :: > 1000 nM

Query :: Please tell me: IC50 of NC(=O)c1ccc(-c2cnc(Nc3ccc(N)cc3)c3nccn23)cc1 [Compound 18] , system MAPKAPK5 (Homo sapiens, UniProt Q8IW41)?
Result :: > 1000 nM

Query :: Please tell me: IC50 of NS(=O)(=O)c1ccc(-c2cnc(Nc3ccc(N4CCOCC4)cc3)c3nccn23)cc1 [Compound 29] , system MAPKAPK5 (Homo sapiens, UniProt Q8IW41)?
Result :: > 1000 nM

Query :: Please tell me: IC50 of NC(=O)c1ccc(-c2cnc(Nc3ccc(OCCN4CCOCC4)cc3)c3nccn23)cc1F [Compound 146] , system MAPKAPK5 (Homo sapiens, UniProt Q8IW41)?
Result :: > 1000 nM

Query :: Please tell me: IC50 of O=C1NCc2cc(-c3cnc(Nc4cncnc4)c4nccn34)ccc21 [Compound 230] , system MAPKAPK5 (Homo sapiens, UniProt Q8IW41)?
Result :: 101 to 500 nM

Query :: Please tell me: IC50 of Cc1cc(Nc2ncc(-c3cn[nH]c3)n3ccnc23)ccc1C(N)=O [Compound 33] , system MAPKAPK5 (Homo sapiens, UniProt Q8IW41)?
Result :: > 1000 nM

Query :: Please tell me: IC50 of CCc1cnc2c(Nc3ccc(N4CCOCC4)cc3)ncc(-c3ccc(C(N)=O)cc3)n12 [Compound 162] , system MAPKAPK5 (Homo sapiens, UniProt Q8IW41)?
Result :: > 1000 nM

###

# Test system: MMP1 expression by SFs
# Test details: 'MMP assay': MMP1 expression by 'complex trigger' activated synovial fibroblasts (MMP1 ELISA)
# Assay type: cell-based, human
# Measurement setup: Homo sapiens, Fibroblast, RASFs, 48 hrs
pEC50: −log10 of the molar value.
Measure name: pEC50

Query :: Name the recorded pEC50 for C[C@@H]1CN(c2ccc(Nc3ncc(-c4csc(C(N)=O)c4)n4ccnc34)cc2)[C@@H](C)CN1C .
Result :: 6.00 to 6.30

Query :: Name the recorded pEC50 for CCN(CCO)c1ccc(Nc2ncc(-c3cccc(C(N)=O)c3)n3ccnc23)cc1 .
Result :: < 6.00

Query :: Name the recorded pEC50 for c1cn2c(-c3cn[nH]c3)cnc(Nc3ccc4[nH]ccc4c3)c2n1 .
Result :: < 6.00

Query :: Name the recorded pEC50 for C[C@@H]1CN(c2ccc(Nc3ncc(-c4cc(C(N)=O)co4)n4ccnc34)cc2)[C@@H](C)CN1C .
Result :: 6.30 to 7.00

Query :: Name the recorded pEC50 for O=C(Nc1ccc(Nc2ncc(-c3cn[nH]c3)n3ccnc23)cn1)c1ccccc1 .
Result :: 6.30 to 7.00

Query :: Name the recorded pEC50 for CCNCCNC(=O)c1ccc(Nc2ncc(-c3cn[nH]c3)n3ccnc23)cc1 .
Result :: < 6.00

Query :: Name the recorded pEC50 for CCOc1cc(-c2cnc(Nc3ccc(N4CCOCC4)cc3)c3nccn23)ccn1 .
Result :: < 6.00

Query :: Name the recorded pEC50 for CN1CCN(c2ccc(Nc3ncc(-c4ccc(=O)[nH]c4)n4ccnc34)cc2)CC1 .
Result :: < 6.00

Query :: Name the recorded pEC50 for CCN(CC)CCNC(=O)c1cccc(Nc2ncc(-c3cn[nH]c3)n3ccnc23)c1 .
Result :: < 6.00

Query :: Name the recorded pEC50 for NC(=O)c1ccc(-c2cnc(Nc3ccc(N4CCOCC4)cc3)c3nccn23)s1 .
Result :: 6.30 to 7.00

Query :: Name the recorded pEC50 for CCN(CC)CCNC(=O)c1ccc(Nc2ncc(-c3n[nH]c(C)n3)n3ccnc23)cc1 .
Result :: < 6.00

Query :: Name the recorded pEC50 for NC(=O)CN1CCC(c2ccc(Nc3ncc(-c4cn[nH]c4)n4ccnc34)cc2)CC1 .
Result :: < 6.00

Query :: Name the recorded pEC50 for O=C(O)c1cnc(Nc2ccc(N3CCOCC3)cc2)c2nccn12 .
Result :: < 6.00

Query :: Name the recorded pEC50 for O=C(O)c1ccc(Nc2ncc(-c3cn[nH]c3)n3ccnc23)cc1 .
Result :: < 6.00

Query :: Name the recorded pEC50 for COC(=O)c1cccc(Nc2ncc(-c3cn[nH]c3)n3ccnc23)c1 .
Result :: < 6.00

Query :: Name the recorded pEC50 for CC(C)N1CCN(c2ccc(Nc3ncc(-c4ccc5c(c4)CNC5=O)n4ccnc34)cn2)CC1 .
Result :: 6.00 to 6.30

Query :: Name the recorded pEC50 for CN1CCN(c2ccc(Nc3ncc(-c4ccc(C(=O)NC5CC5)cc4)n4ccnc34)cc2)CC1 .
Result :: < 6.00

Query :: Name the recorded pEC50 for CCN(CCO)c1ccc(Nc2ncc(-c3cn[nH]c3)n3ccnc23)c(C)c1 .
Result :: < 6.00

Query :: Name the recorded pEC50 for C[C@@H]1CN(c2ccc(Nc3ncc(-c4ccc(C(N)=O)cc4)n4ccnc34)cc2)C[C@H](C)N1C .
Result :: 6.30 to 7.00

Query :: Name the recorded pEC50 for NC(=O)c1cc(-c2cnc(Nc3ccc(N4CCOCC4)cc3)c3nccn23)cs1 .
Result :: 6.30 to 7.00

Query :: Name the recorded pEC50 for O=C(O)c1ccc(-c2cnc(Nc3ccc(C(=O)NCc4cccnc4)cc3)c3nccn23)cc1 .
Result :: < 6.00

Query :: Name the recorded pEC50 for NC(=O)c1ccc(-c2cnc(Nc3ccc4[nH]ccc4c3)c3nccn23)cc1 .
Result :: 6.00 to 6.30

Query :: Name the recorded pEC50 for N#Cc1[nH]ncc1-c1cnc(Nc2ccc(N3CCOCC3)cc2)c2nccn12 .
Result :: 6.30 to 7.00

Query :: Name the recorded pEC50 for O=C1NCc2cc(-c3cnc(Nc4cccnc4)c4nccn34)ccc21 .
Result :: 6.00 to 6.30

Query :: Name the recorded pEC50 for CN1CCN(c2ccc(Nc3ncc(-c4ccc(C(N)=O)c(Cl)c4)n4ccnc34)cc2)CC1 .
Result :: < 6.00

Query :: Name the recorded pEC50 for O=C(O)c1ccc(-c2cnc(Nc3ccc(C(=O)NCCN4CCOCC4)cc3)c3nccn23)cc1 .
Result :: < 6.00

Query :: Name the recorded pEC50 for CCN(CC)CCNS(=O)(=O)c1ccc(Nc2ncc(-c3ccc(C(N)=O)cc3)n3ccnc23)cc1 .
Result :: 6.00 to 6.30

Query :: Name the recorded pEC50 for NC(=O)c1ccc(-c2cnc(Nc3cccc(N4CCOCC4)c3)c3nccn23)cc1 .
Result :: < 6.00

Query :: Name the recorded pEC50 for CN1CCN(c2ccc(Nc3ncc(-c4ccc(C(N)=O)s4)n4ccnc34)cc2)CC1 .
Result :: 6.30 to 7.00

Query :: Name the recorded pEC50 for O=C(NCc1ccc(O)cc1)c1ccc(Nc2ncc(-c3cc[nH]c(=O)c3)n3ccnc23)cc1 .
Result :: 6.30 to 7.00

Query :: Name the recorded pEC50 for O=C(Nc1ccccc1)c1ccc(Nc2ncc(-c3cn[nH]c3)n3ccnc23)cc1 .
Result :: < 6.00

Query :: Name the recorded pEC50 for CCN(CC)CCNC(=O)c1ccc(Nc2ncc(-c3ccncc3)n3ccnc23)cc1 .
Result :: < 6.00

Query :: Name the recorded pEC50 for CN1CCN(c2ccc(Nc3ncc(-c4cscn4)n4ccnc34)cc2)CC1 .
Result :: < 6.00
